- Tested on: HCI09 (cells of a triple-negative luminal androgen receptor type breast cancer xenograft)
- run_description: cell viability (% of vehicle); higher = less cytotoxic;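 note: PDX cells carrying CMV promoter-driven luciferase, viability read as total photon flux per second by IVIS imaging following D-luciferin, vehicle control 0.1% DMSO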
- experimental_parameters: 10 µM; 72 h
parameter: cell viability
Give a plain numeric answer without units written out.

-- ask // query cell viability value for entry CCOC(=O)[C@H](CCc1ccccc1)N[C@@H](C)C(=O)N1[C@H](C(=O)O)C[C@H]2CCCC[C@@H]21
-- reply 115

-- ask Another compound: COc1cc2nc(N3CCN(C(=O)C4CCCO4)CC3)nc(N)c2cc1OC.Cl.O.O (configuration not stated) [Terazosin HCl]
-- reply 110

-- ask Another compound: N#CC1CC2CC2N1C(=O)C(N)C12CC3CC(CC(O)(C3)C1)C2 (configuration not stated)
-- reply 82.1

-- ask Another compound: C#Cc1cccc(Nc2ncnc3cc(OC)c(OCCCCCCC(=O)NO)cc23)c1
-- reply 22.1

-- ask Another compound: CC(C)c1c(C(=O)Nc2ccccc2)c(-c2ccccc2)c(-c2ccc(F)cc2)n1CCC(O)CC(O)CC(=O)[O-].CC(C)c1c(C(=O)Nc2ccccc2)c(-c2ccccc2)c(-c2ccc(F)cc2)n1CCC(O)CC(O)CC(=O)[O-].[Ca+2] (configuration not stated)
-- reply 89.2

-- ask Another compound: CC(=O)Nc1ncc([N+](=O)[O-])s1 [Nithiamide]
-- reply 106

-- ask Another compound: COc1ccc(O)cc1
-- reply 101

====

- Test system: WHIM2 (cells of a triple-negative basal-like breast cancer xenograft)
- run_description: cell viability (% of vehicle); higher = less cytotoxic
- experimental_parameters: 10 µM; 72 h
parameter: cell viability
Give a plain numeric answer without units written out.

-- ask What measured cell viability is associated with CN1CCCN=C1C=Cc1cccs1.O=C(O)c1cc2ccccc2c(Cc2c(O)c(C(=O)O)cc3ccccc23)c1O [Pyrantel Pamoate] on WHIM2?
-- reply 95.8

-- ask Another molecule: CN(CCOc1ccc(CC2SC(=O)NC2=O)cc1)c1ccccn1.O=C(O)C=CC(=O)O (stereo not given) [Rosiglitazone maleate]
-- reply 156

-- ask Another molecule: CC1=C(C(=O)OC(C)C)C(c2cccc([N+](=O)[O-])c2)C(C(=O)OC2CN(C(c3ccccc3)c3ccccc3)C2)=C(N)N1 (stereo not given)
-- reply 61.3

-- ask Another molecule: CC12CC3CC(C)(C1)CC(N)(C3)C2.Cl [Memantine hydrochloride]
-- reply 88.1

-- ask Another molecule: COc1ccc(C[C@H](N)C(=O)N[C@@H]2[C@H](O)[C@H](n3cnc4c(N(C)C)ncnc43)O[C@@H]2CO)cc1.Cl.Cl [Puromycin dihydrochloride]
-- reply 42

-- ask Another molecule: Nc1nc(Cl)nc2c1ncn2C1CC(O)C(CO)O1 (stereo not given)
-- reply 106

-- ask Another molecule: CN1CCCC1CCOC(C)(c1ccccc1)c1ccc(Cl)cc1.O=C(O)C=CC(=O)O (stereo not given) [Clemastine Fumarate]
-- reply 37.8

-- ask Another molecule: CCCS(=O)c1ccc2nc(NC(=O)OC)[nH]c2c1 (stereo not given) [Albendazole Oxide]
-- reply 112

-- ask Another molecule: NC(=O)c1ncn(C2OC(CO)C(O)C2O)n1 (stereo not given)
-- reply 99.1

-- ask Another molecule: CC(C)COc1ccc(CNC(=O)N(Cc2ccc(F)cc2)C2CCN(C)CC2)cc1
-- reply 43.7

-- ask Another molecule: COc1cc(Nc2nc3ccccc3nc2NS(=O)(=O)c2ccc(NC(=O)c3ccc(C)c(OC)c3)cc2)cc(OC)c1
-- reply 54.3

-- ask Another molecule: Cc1ncc(CO)c(CO)c1O.Cl [Pyridoxine HCl]
-- reply 86.6

-- ask Another molecule: CC1CC2C3CCC4=CC(=O)C=CC4(C)C3(Cl)C(O)CC2(C)C1(OC(=O)c1ccco1)C(=O)CCl (stereo not given) [Mometasone furoate]
-- reply 83.5

-- ask Another molecule: CCC(CO)NCCNC(CC)CO.Cl.Cl (stereo not given) [Ethambutol HCl]
-- reply 93.4

-- ask Another molecule: Cc1c(OCC(F)(F)F)ccnc1CS(=O)c1nc2ccccc2[n-]1.[Na+] (stereo not given) [Lansoprazole sodium]
-- reply 143

-- ask Another molecule: CN1CC(=O)N2[C@H](c3ccc4c(c3)OCO4)c3[nH]c4ccccc4c3C[C@@H]2C1=O
-- reply 112

-- ask Another molecule: FC(F)(F)c1ccc(CNc2ccc(Cc3c[nH]c4ncc(Cl)cc34)cn2)cn1
-- reply 96.5

-- ask Another molecule: CN(CC=CC#CC(C)(C)C)Cc1cccc2ccccc12.Cl [Terbinafine HCl]
-- reply 62.8

-- ask Another molecule: Nc1nc(CC(=O)Nc2ccc(CCNCC(O)c3ccccc3)cc2)cs1 (stereo not given)
-- reply 97

-- ask Another molecule: CC(=O)O.CC(O)C(CO)NC(=O)C1CSSCC(NC(=O)C(N)Cc2ccccc2)C(=O)NC(Cc2ccccc2)C(=O)NC(Cc2c[nH]c3ccccc23)C(=O)NC(CCCCN)C(=O)NC(C(C)O)C(=O)N1 (stereo not given) [Octreotide acetate]
-- reply 86.9

-- ask Another molecule: [I-].[K+] [Potassium Iodide]
-- reply 82

-- ask Another molecule: O=S(=O)(O)NC1CCCCC1
-- reply 104

-- ask Another molecule: CCOc1nc2cccc(C(=O)OC(C)OC(=O)OC3CCCCC3)c2n1Cc1ccc(-c2ccccc2-c2nn[nH]n2)cc1 (stereo not given)
-- reply 37.6

-- ask Another molecule: Cc1cccc(C)c1OCC(=O)NC(Cc1ccccc1)C(O)CC(Cc1ccccc1)NC(=O)C(C(C)C)N1CCCNC1=O (stereo not given)
-- reply 73.6

-- ask Another molecule: CN1CCC(=C2c3ccccc3CC(=O)c3sccc32)CC1.O=C(O)C=CC(=O)O [Ketotifen Fumarate]
-- reply 84.4

-- ask Another molecule: O=NN(CCCl)C(=O)NCCCl
-- reply 96.2

-- ask Another molecule: COC(=O)C1C2CC3c4[nH]c5cc(OC)ccc5c4CCN3CC2CC(OC(=O)c2cc(OC)c(OC)c(OC)c2)C1OC.Cl (stereo not given) [Reserpine hydrochloride]
-- reply 92.6

-- ask Another molecule: CNC1CCC(c2ccc(Cl)c(Cl)c2)c2ccccc21.Cl (stereo not given) [Sertraline HCl]
-- reply 42.8

-- ask Another molecule: Nc1ccccc1NC(=O)c1ccc(CNc2nccc(-c3cccnc3)n2)cc1
-- reply 109

-- ask Another molecule: CCCCC1C(=O)N(c2ccccc2)N(c2ccccc2)C1=O
-- reply 89

====

- Tested on: HCI03 (cells of an ER-positive luminal breast cancer xenograft)
- run_description: cell viability (% of vehicle); higher = less cytotoxic
- experimental_parameters: 10 µM; 72 h
Answer each item with its documented cell viability.
Give a plain numeric answer without units written out.

-- ask // query cell viability value for entry Cc1ccc(NC(=O)C2(c3ccc4c(c3)OC(F)(F)O4)CC2)nc1-c1cccc(C(=O)O)c1
-- reply 89.5

-- ask Another compound: Nc1nc2ccc(OC(F)(F)F)cc2s1
-- reply 158

-- ask Another compound: Cl.Clc1ccccc1CN1CCc2sccc2C1 [Ticlopidine HCl]
-- reply 108

-- ask Another compound: O=C(c1cc(Cc2n[nH]c(=O)c3ccccc23)ccc1F)N1CCN(C(=O)C2CC2)CC1
-- reply 112

-- ask Another compound: O=C(Nc1ccccc1)c1ccccc1O [Salicylanilide]
-- reply 133

-- ask Another compound: COc1ccc2c(O[C@H]3CC4C(=O)N(C)CCCC/C=C\[C@H]5C[C@@]5(C(=O)NS(=O)(=O)C5CC5)NC(=O)[C@@H]4C3)cc(-c3nc(C(C)C)cs3)nc2c1C (stereo partly drawn)
-- reply 39.5

-- ask Another compound: Cn1c(=O)c2[nH]cnc2n(C)c1=O
-- reply 123

-- ask Another compound: CCCNC1CCc2nc(N)sc2C1.Cl.Cl.O (stereo not drawn) [Pramipexole 2HCl Monohydrate]
-- reply 131

====

Answer each item with its documented cell viability.
- Test system: HCI16 (cells of a triple-negative basal-like breast cancer xenograft)
- run_description: cell viability (% of vehicle); higher = less cytotoxic
- experimental_parameters: 10 µM; 72 h
Give a plain numeric answer without units written out.

-- ask // query cell viability value for entry C/C=C/C1=C(C(=O)O)N2C(=O)[C@@H](NC(=O)[C@H](N)c3ccc(O)cc3)[C@@H]2SC1
-- reply 115

-- ask Another molecule: CC(=O)NC(CS)C(=O)O (centres undefined)
-- reply 118

-- ask Another molecule: O=P(O)(O)C(O)(Cn1ccnc1)P(=O)(O)O
-- reply 94.7

-- ask Another molecule: COc1ccc2[nH]cc(CCNC(C)=O)c2c1
-- reply 109

-- ask Another molecule: COC(=O)C1=C(C)NC(C)=C(C(=O)OC(C)C)C1c1cccc2nonc12 (centres undefined)
-- reply 117

-- ask Another molecule: Cc1ccc(-n2[nH]c(C)c(NN=C3C=CC=C(c4cccc(C(=O)O)c4)C3=O)c2=O)cc1C.NCCO.NCCO
-- reply 119

-- ask Another molecule: CC1(C)SC2C(NC(=O)Cc3ccccc3)C(=O)N2C1C(=O)[O-].[Na+] (centres undefined) [Penicillin G Sodium]
-- reply 111

-- ask Another molecule: CC(C)COc1ccc(CNC(=O)N(Cc2ccc(F)cc2)C2CCN(C)CC2)cc1
-- reply 87.3

-- ask Another molecule: Cl.O=C1CC2(CCCC2)CC(=O)N1CCCCN1CCN(c2ncccn2)CC1 [Buspirone HCl]
-- reply 119

-- ask Another molecule: CC1(C)CCC(CN2CCN(c3ccc(C(=O)NS(=O)(=O)c4ccc(NCC5CCOCC5)c([N+](=O)[O-])c4)c(Oc4cnc5[nH]ccc5c4)c3)CC2)=C(c2ccc(Cl)cc2)C1
-- reply 80

-- ask Another molecule: CCc1ccc(CCOc2ccc(CC3SC(=O)NC3=O)cc2)nc1.Cl (centres undefined) [Pioglitazone HCl]
-- reply 102

-- ask Another molecule: Oc1c(Cl)cc(Cl)c2cccnc12
-- reply 130

-- ask Another molecule: CCOC(=O)C1=CC(OC(CC)CC)C(NC(C)=O)C(N)C1.O=P(O)(O)O (centres undefined) [Oseltamivir phosphate]
-- reply 124

-- ask Another molecule: CCCCCOC(=O)Nc1nc(=O)n(C2OC(C)C(O)C2O)cc1F (centres undefined)
-- reply 120

-- ask Another molecule: Cc1nc(NC(=O)N2CCCC2C(N)=O)sc1-c1ccnc(C(C)(C)C(F)(F)F)c1 (centres undefined)
-- reply 93.6

-- ask Another molecule: N=C(NCCCCCCNC(=N)NC(=N)Nc1ccc(Cl)cc1)NC(=N)Nc1ccc(Cl)cc1 [Chlorhexidine digluconate]
-- reply 112

-- ask Another molecule: CN1CCN(C2=Nc3ccccc3Oc3ccc(Cl)cc32)CC1.O=C(O)CCC(=O)O [Loxapine Succinate]
-- reply 138

-- ask Another molecule: CCN(CC)CCNC(=O)c1cc(Cl)c(N)cc1OC [Metoclopramide]
-- reply 72.6

-- ask Another molecule: O=C(NCCO[N+](=O)[O-])c1cccnc1
-- reply 113

-- ask Another molecule: CC(=O)NCC1CN(c2ccc(N3CCOCC3)c(F)c2)C(=O)O1 (centres undefined)
-- reply 110

-- ask Another molecule: N#Cc1ccc(C(c2ccc(C#N)cc2)n2cncn2)cc1
-- reply 99.1

-- ask Another molecule: Nc1nc(NC2CC2)c2ncn(C3C=CC(CO)C3)c2n1 (centres undefined)
-- reply 121

-- ask Another molecule: COc1cc2c(cc1OC)CN(CCc1ccc(NC(=O)c3cccc4c(=O)c5cccc(OC)c5[nH]c34)cc1)CC2
-- reply 97.7

-- ask Another molecule: Cn1cnc([N+](=O)[O-])c1Sc1ncnc2nc[nH]c12
-- reply 151

-- ask Another molecule: COc1cc(OC)c(C=CS(=O)(=O)Cc2ccc(OC)c(NCC(=O)[O-])c2)c(OC)c1.[Na+]
-- reply 115

-- ask Another molecule: CCOC(=O)n1ccn(C)c1=S
-- reply 101

-- ask Another molecule: COc1c(C)c2c(c(O)c1CC=C(C)CCC(=O)OCCN1CCOCC1)C(=O)OC2 [Mycophenolate Mofetil]
-- reply 86.2

-- ask Another molecule: CNCC(O)c1ccc(O)c(O)c1.Cl (centres undefined) [Epinephrine HCl]
-- reply 119

-- ask Another molecule: CCOc1nc2cccc(C(=O)OCc3oc(=O)oc3C)c2n1Cc1ccc(-c2ccccc2-c2nc(=O)o[nH]2)cc1
-- reply 124

-- ask Another molecule: Cc1c(NC(=O)c2cccnc2)c(=O)n(-c2ccccc2)n1C
-- reply 122

-- ask Another molecule: CC(C)(C)NCC(O)c1ccc(O)c(CO)c1.O=S(=O)(O)O (centres undefined) [Salbutamol Sulfate]
-- reply 104

-- ask Another molecule: CS(=O)(=O)OCCCCOS(C)(=O)=O
-- reply 108

-- ask Another molecule: Cc1cc(=O)[nH]c(=S)[nH]1
-- reply 115

-- ask Another molecule: CC(C)(C)c1nc(-c2cccc(NS(=O)(=O)c3c(F)cccc3F)c2F)c(-c2ccnc(N)n2)s1
-- reply 73.6

Recorded values, source the supplement of paper PMC6992640.
